Hello, the source for this data is patent US9394282B2, in case you need it.

targetSystem: JAK1 (Homo sapiens (Human))
assayName: Jak biochemical HTRF assay, JAK1
recordedConditions: recombinant purified GST-tagged catalytic domain; HTRF format; [ATP] 31.8 μM
endpoint: pIC50
The value called pIC50 is obtained by taking minus log10 of the concentration in mol/L.

Solved cases below.
N#C[C@H]1CCOC[C@@H]1n1cc(C(N)=O)c(Nc2ccc(OC(F)(F)F)cc2)n1 (single isomer, unassigned) [Example 9-20]: 8.15
C[C@]1(C#N)CS(=O)(=O)CC1n1cc(C(N)=O)c(Nc2ccc(F)cc2)n1 (stereo partly shown) [Example 13-5]: 9.30
N#C[C@@H]1CCN(Cc2ccon2)C[C@H]1n1cc(C(N)=O)c(Nc2ccc(F)cc2)n1 (racemic) [Example 6-3]: 8.70

Now examine the next entry.
Given N#C[C@@H]1CCN(C(=O)OC(CF)CF)CC1n1cc(C(N)=O)c(Nc2ccc(F)cc2)n1 (mixture of isomers) [Example 5-71] , state its recorded pIC50. 8.40

###

targetSystem: JAK1 (Homo sapiens (Human))
assayName: Jak biochemical HTRF assay, JAK1
recordedConditions: recombinant purified GST-tagged catalytic domain; HTRF format; [ATP] 31.8 μM
endpoint: log10 IC50 (log10 of the value in nM)
Quick note: numbers are log10 of IC50, with nM as the unit.

Solved cases below.
N#C[C@@H]1CCN(Cc2cccnn2)CC1n1cc(C(N)=O)c(Nc2ccc(F)cc2)n1 (mixture of isomers) [Example 6-1]: 0.78
C[C@@]1(C#N)CS(=O)(=O)C[C@@H]1n1cc(C(N)=O)c(Nc2ccc(F)cc2)n1 (single isomer, unassigned) [Example 14-2]: 1.92
N#C[C@@H]1CN(C(=O)OC2Cc3ccccc3C2)CC[C@H]1n1cc(C(N)=O)c(Nc2ccc(F)cc2)n1 (racemic) [Example 5-37]: 1.73
CC(C)(C)COC(=O)N1CC[C@H](n2cc(C(N)=O)c(Nc3ccc(F)cc3)n2)[C@H](C#N)C1 (racemic) [Example 5-50]: 2.80

Given CC(C)(C)OC(=O)N1CC[C@H](C#N)C(n2cc(C(N)=O)c(Nc3ccc(F)cc3)n2)C1 (mixture of isomers) [Example 2-1] , state its recorded log10 IC50. 0.78

Given CC(C)COC(=O)N1CC[C@@H](C#N)C(n2cc(C(N)=O)c(Nc3ccc(F)cc3)n2)C1 (mixture of isomers) [Example 5-77] , state its recorded log10 IC50. 0.60

Given N#C[C@@H]1CCN(C(=O)OCc2ccccc2)CC1n1cc(C(N)=O)c(Nc2ccc(F)cc2)n1 (mixture of isomers) [Example 5-82] , state its recorded log10 IC50. 0.30

###

targetSystem: JAK1 (Homo sapiens (Human), UniProt P23458)
Sequence (P23458 875-1153): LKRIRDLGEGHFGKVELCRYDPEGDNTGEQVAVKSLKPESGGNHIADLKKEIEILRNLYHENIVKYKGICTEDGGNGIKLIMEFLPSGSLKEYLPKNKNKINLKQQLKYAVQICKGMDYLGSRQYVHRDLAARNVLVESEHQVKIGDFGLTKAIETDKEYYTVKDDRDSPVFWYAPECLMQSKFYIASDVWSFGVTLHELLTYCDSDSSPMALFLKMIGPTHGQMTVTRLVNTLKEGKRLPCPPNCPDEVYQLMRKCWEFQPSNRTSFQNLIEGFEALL
assayName: Jak biochemical HTRF assay, JAK1
recordedConditions: recombinant purified GST-tagged catalytic domain; HTRF format; [ATP] 31.8 μM
endpoint: IC50 (nM)
Just the number in nM, nothing appended.

N#C[C@H]1CCOC[C@@H]1n1cc(C(N)=O)c(Nc2ccc(OCC(F)(F)F)nc2)n1 (single isomer, unassigned): 0.6
COC1CC(CN2CC[C@@H](n3cc(C(N)=O)c(Nc4ccc(F)cc4)n3)[C@H](C#N)C2)C1 (mixture of isomers): 16
N#C[C@H]1CCOC[C@@H]1n1cc(C(N)=O)c(Nc2ccc(C(F)(F)F)nc2)n1 (single isomer, unassigned): 0.7
N#CCC1(COC(=O)N2CC[C@@H](C#N)C(n3cc(C(N)=O)c(Nc4ccc(F)cc4)n3)C2)CC1 (mixture of isomers): 0.7
N#C[C@@H]1CN(C(=O)OC2CCOCC2)CC[C@H]1n1cc(C(N)=O)c(Nc2ccc(F)cc2)n1 (racemic): 20

Now examine the next entry.
Given CC(OC(=O)N1CC[C@@H](C#N)C(n2cc(C(N)=O)c(Nc3ccc(F)cc3)n2)C1)C(F)(F)F (mixture of isomers) , state its recorded IC50. 8
